The measured values listed here are drawn from patent US20250313574A1.

# Assayed target: Recombinant human CD33 protein (Homo sapiens (Human), UniProt P20138)
# Sequence (P20138 18-259): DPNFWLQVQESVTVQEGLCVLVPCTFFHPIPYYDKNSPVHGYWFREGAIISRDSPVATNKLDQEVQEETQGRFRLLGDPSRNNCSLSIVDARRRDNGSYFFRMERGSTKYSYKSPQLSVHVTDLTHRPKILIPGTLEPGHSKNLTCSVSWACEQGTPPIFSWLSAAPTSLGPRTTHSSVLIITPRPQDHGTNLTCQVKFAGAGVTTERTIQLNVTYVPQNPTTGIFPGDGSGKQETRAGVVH
# Test description: CD33 competitive binding assay for HTS drug screen (fluorescent multivalent sialic acid probe)
Recorded endpoint: EC50 (nM)

Compound	Readout number
CC(=O)N[C@H]1[C@H]([C@H](O)[C@H](O)CNC(=O)c2cc(C)c(O)c(C)c2)O[C@@](C/C=C/c2cccc(CNC(=O)c3ccc4cn[nH]c4c3)c2)(C(=O)O)C[C@@H]1O [A-235]	2090
COc1cc(C(=O)NC[C@@H](O)[C@@H](O)[C@@H]2O[C@@](CCN3CCOC[C@@]34CCN(C(=O)OC(C)(C)C)C4)(C(=O)O)C[C@H](O)[C@H]2NC(C)=O)ccc1C#N [A-165]	1140
CC(=O)N[C@H]1[C@H]([C@H](O)[C@H](O)CNC(=O)c2cc(C)c(O)c(C)c2)O[C@@](CCN2CCOC[C@@]23CCN(C(=O)C2CCC(F)(F)CC2)C3)(C(=O)O)C[C@@H]1O [A-075]	99
Cc1cc(C(=O)NC[C@@H](O)[C@@H](O)[C@@H]2O[C@@](OC3CCCCC3NC(=O)Cn3cc(CNC(=O)N4CCOCC4)nn3)(C(=O)O)C[C@H](O)[C@H]2NC(=O)Cn2cc(C3CCCCC3)nn2)cc(C)c1O (stereo partly shown) [A-334]	7700
CC(=O)N[C@H]1[C@H]([C@H](O)[C@H](O)CNC(=O)c2cc(C)c(OCCN)c(C)c2)O[C@@](CCN2CCCC[C@@]23CCN(C(=O)OC(C)(C)C)C3)(C(=O)O)C[C@@H]1O [A-027]	64

A. CC(=O)N[C@H]1[C@H]([C@H](O)[C@H](O)CNC(=O)c2ccc3sc(C)nc3c2)O[C@@](CCN2CCOC[C@@]23CCN(C(=O)OC(C)(C)C)C3)(C(=O)O)C[C@@H]1O [A-131]
B. Cc1cc(C(=O)NC[C@@H](O)[C@@H](O)[C@@H]2O[C@@](OC3CCCCC3NC(=O)Cn3cc(CNC(=O)c4ccccn4)nn3)(C(=O)O)C[C@H](O)[C@H]2NC(=O)Cn2cc(C3CCCCC3)nn2)cc(C)c1O (stereo partly shown) [A-332]
C. CC(=O)N[C@H]1[C@H]([C@H](O)[C@H](O)CNC(=O)c2cc(C)c(O)c(C)c2)O[C@@](CCN2CCOC[C@@]23CCN(C(=O)C2CC(C)(C)C2)C3)(C(=O)O)C[C@@H]1O [A-080]
Req: Sort the 3 compounds by EC50; largest first, smallest last. Use the labels to give the requested order.
Resp: B, C, A

----------
# Assayed target: Recombinant human CD33 protein (Homo sapiens (Human), UniProt P20138)
# Test description: CD33 competitive binding assay for HTS drug screen (fluorescent multivalent sialic acid probe)
Recorded endpoint: EC50 (µM)

Molecule	Assayed target	Unit text	EC50
CC(=O)N[C@H]1[C@H]([C@H](O)[C@H](O)CNC(=O)c2cccc(SC(F)(F)F)c2)O[C@@](CCN2CCOC[C@@]23CCN(C(=O)OC(C)(C)C)C3)(C(=O)O)C[C@@H]1O [A-169]	Recombinant human CD33 protein (Homo sapiens (Human), UniProt P20138)	µM	4.72

I. CC(=O)N[C@H]1[C@H]([C@H](O)[C@H](O)CNC(=O)c2cc(C)c(O)c(C)c2)O[C@@](CCN2CCOC[C@@]23CCN(C(=O)OC(C)(C)C)C3)(c2nn[nH]n2)C[C@@H]1O [A-363]
II. CC(=O)N[C@H]1[C@H]([C@H](O)[C@H](O)CNC(=O)c2cc(C)c(O)c(C)c2)O[C@@](CCN2CCOC[C@@]23CCN(C(=O)NC2CCC(F)(F)CC2)C3)(C(=O)O)C[C@@H]1O [A-051]
Req: Would you let me know which has the greater EC50 value, I or II ? # respond with the chosen item's label
Resp: I
(I: 6.36 µM, II: 0.064 µM)

----------
# Assayed target: Recombinant human CD33 protein (Homo sapiens (Human))
# Test description: CD33 competitive binding assay for HTS drug screen (fluorescent multivalent sialic acid probe)
pEC50: −log10 of the molar value.
Recorded endpoint: pEC50

A selection of reference data follows.
Compound	pEC50
CC(=O)N[C@H]1[C@H]([C@H](O)[C@H](O)CNC(=O)c2cc(C)c(O)c(C)c2)O[C@@](C/C=C/c2cccc(CNC(=O)c3ccc4[nH]c5c(c4c3)CCC(=O)N5C)c2)(C(=O)O)C[C@@H]1O	6.71
CC(=O)N[C@H]1[C@H]([C@H](O)[C@H](O)CNC(=O)c2ccc(C)c(F)c2)O[C@@](CCN2CCOC[C@@]23CCN(C(=O)OC(C)(C)C)C3)(C(=O)O)C[C@@H]1O	6.88

A. Cc1cc(C(=O)NC[C@@H](O)[C@@H](O)[C@@H]2O[C@@](C/C=C/c3cccc(CNC(=O)C4CCCO4)c3)(C(=O)O)C[C@H](O)[C@H]2NC(=O)Cn2cc(C3CCCCC3)nn2)cc(C)c1O (some centres unmarked)
B. C=C(C)c1ccc(C(C)(C)NC(=O)N2CC[C@@]3(COCCN3CC[C@]3(C(=O)O)C[C@H](O)[C@@H](NC(C)=O)[C@H]([C@H](O)[C@H](O)CNC(=O)c4cc(C)c(O)c(C)c4)O3)C2)cc1
Req: Short answer wanted: higher pEC50, A or B ? Answer with the label corresponding to your selection.
Resp: B
(B: 7.20, A: 5.04)

----------
# Assayed target: Recombinant human CD33 protein (Homo sapiens (Human))
# Test description: CD33 competitive binding assay for HTS drug screen (fluorescent multivalent sialic acid probe)
# From the text: This is a competitive binding assay that uses recombinant CD33 immobilized to a plate and a fluorescently-labeled multivalent sialic acid analog as a probe. Binding of drug to the site on CD33 to which sialic acid binds is detected by reduced binding of the fluorescent probe. […] Bound complex was then detected using a standard plate reader to quantify FITC fluorescence.
pEC50: −log10 of the molar value.
Recorded endpoint: pEC50

Known pEC50 results, listed for orientation:
Molecule	pEC50
CC(=O)N[C@H]1[C@H]([C@H](O)[C@H](O)CNC(=O)c2cc(C)c(O)c(C)c2)O[C@@](CCN2CCOC[C@@]23CCN(C(=O)N(C)C(C)C)C3)(C(=O)O)C[C@@H]1O [A-061]	6.63
CC(=O)N[C@H]1[C@H]([C@H](O)[C@H](O)CNC(=O)c2cc(C)c(O)c(C)c2)O[C@@](C/C=C/c2cc(CNC(=O)C3CCCOC3)ccc2C)(C(=O)O)C[C@@H]1O (stereo partly shown) [A-289]	5.57
Cc1cc(C(=O)NC[C@@H](O)[C@@H](O)[C@@H]2O[C@@](C/C=C/c3cccc(CNC(=O)c4scnc4C)c3)(C(=O)O)C[C@H](O)[C@H]2NC(=O)Cn2cc(C3CCCCC3)nn2)cc(C)c1O [A-276]	5.53
CC(=O)N[C@H]1[C@H]([C@H](O)[C@H](O)CNC(=O)c2cc(C)c(O)c(C)c2)O[C@@](CC2OC(C)(C)O[C@@H]2c2cccc(C(=O)NCc3ccccc3)c2)(C(=O)O)C[C@@H]1O (stereo partly shown) [A-312]	6.80
CC(=O)N[C@H]1[C@H]([C@H](O)[C@H](O)CNC(=O)c2cc(C)c(O)c(C)c2)O[C@@](CCN2CCOC[C@@]23CCN(C(=O)COC2CCCC2)C3)(C(=O)O)C[C@@H]1O [A-092]	5.69

a. CC(=O)N[C@H]1[C@H]([C@H](O)[C@H](O)CNC(=O)c2cc(C)c(O)c(C)c2)O[C@@](CCN2CCCCC23CCN(C(=O)OC(C)(C)C)C3)(C(=O)O)C[C@@H]1O (stereo partly shown) [A-022]
b. CC(=O)N[C@H]1[C@H]([C@H](O)[C@H](O)CNC(=O)c2cc(C)cc(C)c2)O[C@@](CCN2CCOC[C@@]23CCN(C(=O)OC(C)(C)C)C3)(C(=O)O)C[C@@H]1O [A-190]
c. CC(=O)N[C@H]1[C@H]([C@H](O)[C@H](O)CNC(=O)c2cnn(C)c2)O[C@@](CCN2CCOC[C@@]23CCN(C(=O)OC(C)(C)C)C3)(C(=O)O)C[C@@H]1O [A-177]
d. CC(=O)N[C@H]1[C@H]([C@H](O)[C@H](O)CNC(=O)c2ccc3[nH]nc(F)c3c2)O[C@@](CCN2CCOC[C@@]23CCN(C(=O)OC(C)(C)C)C3)(C(=O)O)C[C@@H]1O [A-128]
Req: Ranking field: pEC50; order: falling. When ranking, write the labels in the order the request describes.
Resp: d, b, c, a

----------
# Assayed target: Recombinant human CD33 protein (Homo sapiens (Human), UniProt P20138)
# Test description: CD33 competitive binding assay for HTS drug screen (fluorescent multivalent sialic acid probe)
Recorded endpoint: EC50 (nM)

Smiles entry	EC50 (nM)
CC(=O)N[C@H]1[C@H]([C@H](O)[C@H](O)CNC(=O)c2cc(C)c(O)c(C)c2)O[C@@](CCN2CC(=O)N(C)C[C@@]23CCN(C(=O)OC(C)(C)C)C3)(C(=O)O)C[C@@H]1O	34

I. CC(=O)N[C@H]1[C@H]([C@H](O)[C@H](O)CNC(=O)c2cc(C)c(O)c(C)c2)O[C@@](CCN2CCOC[C@@]23CCN(C(=O)COC(C)C)C3)(C(=O)O)C[C@@H]1O
II. CC(=O)N[C@H]1[C@H]([C@H](O)[C@H](O)CNC(=O)c2cc(C)c(O)c(C)c2)O[C@@](CCN2CCOC[C@@]23CCN(c2ccccn2)C3)(C(=O)O)C[C@@H]1O
III. CC(=O)N[C@H]1[C@H]([C@H](O)[C@H](O)CNC(=O)c2cc(C)[nH]n2)O[C@@](CCN2CCOC[C@@]23CCN(C(=O)OC(C)(C)C)C3)(C(=O)O)C[C@@H]1O
IV. CC(=O)N[C@H]1[C@H]([C@H](O)[C@H](O)CNC(=O)c2cc(C)c(O)c(C)c2)O[C@@](CCN2CCOC[C@@]23CCN(C(=O)C2CC2)C3)(C(=O)O)C[C@@H]1O
Req: Provide the items ranked by increasing EC50. Write the labels, ordered according to the request.
Resp: II, III, IV, I
